# system name: T1, control peptide A2E-7/HLA-A*02:01 complex on T2 cells (member of the P19 mixture) (human)
# T1 construct: Loaded on T2 cells as part of the mixture of 19 control peptides
# assay procedure: flow cytometry, phage on T2 cells

- binder: "PSA146/HLA-A*02:01-specific scFv phage clone #17 (scFv, V domains shown) VH: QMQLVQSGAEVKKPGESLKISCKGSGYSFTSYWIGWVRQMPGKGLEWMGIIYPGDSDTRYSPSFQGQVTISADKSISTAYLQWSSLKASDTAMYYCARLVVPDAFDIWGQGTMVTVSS VL: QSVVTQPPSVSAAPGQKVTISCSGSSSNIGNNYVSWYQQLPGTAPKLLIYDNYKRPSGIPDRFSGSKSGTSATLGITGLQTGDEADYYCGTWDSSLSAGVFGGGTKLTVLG"
  binding result: "no binding"
- binder: "PSA146/HLA-A*02:01-specific scFv phage clone #14 (scFv, V domains shown) VH: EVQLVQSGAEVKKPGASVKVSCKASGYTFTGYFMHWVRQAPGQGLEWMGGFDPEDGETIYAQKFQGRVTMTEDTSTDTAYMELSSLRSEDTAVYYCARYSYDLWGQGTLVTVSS VL: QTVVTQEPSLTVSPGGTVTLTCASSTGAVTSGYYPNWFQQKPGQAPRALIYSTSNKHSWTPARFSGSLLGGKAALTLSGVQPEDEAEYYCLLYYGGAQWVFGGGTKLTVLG"
  binding result: "no binding"
- binder: "PSA146/HLA-A*02:01-specific scFv phage clone #15 (scFv, V domains shown) VH: QVQLVQSGAEVKKPGSSVKVSCKASGGTFSSYAISWVRQAPGQGLEWMGRIIPILGIANYAQKFQGRVTITADKSTSTAYMELSSLRSEDTAVYYCARVSQPVYGSSTYDIWGQGTLVTVSS VL: QAVLTQPPSASGTPGQRVTISCSGRSSNLGSNSVNWYQQVPGTAPKLLIFDNHQRPSGVPDRFSGSKSGTSASLAISGLRSEDETDYYCAAWDDSLNSVVFGGGTKLTVLG"
  binding result: "no binding"
